tested on: FEPS (K562/DNR); experiment: MTT cytotoxicity to MDR CML cell line FEPS; type: cell-based, human; details: (EC50 MDR cells)/(EC50 parental cells), FEPS/K562
Quantity kind: RR (relative resistance) FEPS

Below: 6 molecules and their reported RR (relative resistance) FEPS.
Clc1ccc(/C=C/c2nc(-c3ccccc3)no2)cc1 : >2.12
Fc1ccc(/C=C/c2nc(-c3ccccc3)no2)cc1 : <0.67
COc1cccc(/C=C/c2nc(-c3cc(OC)c(OC)c(OC)c3)no2)c1 : <0.36
C(=C\c1nc(-c2ccccc2)no1)/c1ccc2c(c1)OCCO2 : <0.41
COc1ccc(/C=C/c2nc(-c3ccccc3)no2)cc1 : <0.59
COc1cc(-c2noc(/C=C/c3ccccc3)n2)cc(OC)c1OC : <0.28

Requested field: RR (relative resistance) FEPS. Item: `C(=C\c1cccs1)/c1nc(-c2ccccc2)no1`
<0.56

* * *

Catalogue of compounds with associated pEC50
system: LLC-MK2 cells; assay: Cytotoxicity to LLC-MK2 host cells (MTT); type: cell-based; details: Macaca mulatta, LLC-MK2; 120 h, MTT
pEC50: −log10 of the molar value.

Below: 2 compounds and their reported pEC50.
C(=C\c1nc(-c2ccccc2)no1)/c1cccnc1 [Compound 15] : < 4.00
COc1cc(/C=C/c2nc(-c3ccccc3)no2)cc(OC)c1OC [Compound 12] : < 4.00

Let us move to another entry and its pEC50.
Requested field: pEC50. Item: O=C(Cn1ccnc1[N+](=O)[O-])NCc1ccccc1 [Benznidazole, reference compound]
< 4.00

Reference for the values: paper PMC9787607
